Here the recorded Kd is given for each entry.
target: GDP-bound KRAS wild-type protein (Homo sapiens); assay: Binding to KRAS by surface plasmon resonance (SPR), Single Cycle Kinetics; details: SPR Single Cycle Kinetics, GDP-bound KRAS wild-type protein, 1:1 binding model; read-out: KRAS KD
Sequence (P01116 whole entry): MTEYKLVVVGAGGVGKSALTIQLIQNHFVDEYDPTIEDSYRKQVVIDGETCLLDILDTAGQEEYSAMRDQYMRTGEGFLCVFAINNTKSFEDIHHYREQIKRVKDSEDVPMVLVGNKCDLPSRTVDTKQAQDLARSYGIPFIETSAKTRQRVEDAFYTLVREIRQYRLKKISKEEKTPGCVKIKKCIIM
Where a SMILES comes first, the peptide text is derived from it. Bridges are numbered along the chain shown (N, C = ends). [ ]: non-standard residue; d: D form. The star is where a group is joined. hPhe(3-Cl-4-CF3) = N[C@@H](CCc1ccc(C(F)(F)F)c(Cl)c1)C(=O)O; NPrPhe(4-CF3) = CCCN[C@@H](Cc1ccc(C(F)(F)F)cc1)C(=O)O; NMeGly(cPent) = CN[C@H](C(=O)O)C1CCCC1; NMeD = CN[C@@H](CC(=O)O)C(=O)O; NMeL = CN[C@@H](CC(C)C)C(=O)O; Morpholide = C1CN(*)CCO1; Ac5c = NC1(C(=O)O)CCCC1; Aze = O=C(O)[C@@H]1CCN1; NPrGly = CCCNCC(=O)O; Sar = CNCC(=O)O
Report only the number, with the unit nM understood.

Study these solved cases before continuing.
# compound, system-name, Kd, nM
measured = [
    ("CCCN1CC(=O)NC2(CCCC2)C(=O)N(C)[C@@H](C2CCCC2)C(=O)N(C)[C@H](C(=O)N2CCOCC2)CC(=O)N(C)[C@@H](CC(C)C)C(=O)N[C@@H]([C@@H](C)CC)C(=O)N2CC[C@H]2C(=O)N(C)CC(=O)N(CCC)[C@@H](Cc2ccc(C(F)(F)F)cc2)C(=O)N(C)CC(=O)N[C@@H](CCc2ccc(C(F)(F)F)c(Cl)c2)C1=O [PP0315] ([NMeL]I[Aze][Sar][NPrPhe(4-CF3)][Sar][hPhe(3-Cl-4-CF3)][NPrGly][Ac5c][NMeGly(cPent)][NMeD]-Morpholide; lactam N-11)", "GDP-bound KRAS wild-type protein (Homo sapiens)", 3.8),
    ("CC[C@H](C)[C@@H]1NC(=O)[C@H](CC(C)C)N(C)C(=O)C[C@@H](C(=O)N2CCOCC2)N(C)C(=O)[C@H](C2CCC2)N(C)C(=O)C2(CCCC2)NC(=O)[C@@H]2CCCN2C(=O)[C@H](CCc2cc(F)c(C(F)(F)F)c(F)c2)NC(=O)CN(C)C(=O)[C@H](Cc2ccc(C(F)(F)F)cc2)N2CCCC[C@@H](C2=O)N(C)C(=O)CN(C)C1=O", "GDP-bound KRAS wild-type protein (Homo sapiens)", 0.29),
]

Turning now to a further record.
query: Item `CCC[C@H]1C(=O)N[C@@H]([C@@H](C)CC)C(=O)N2C[C@@H](OC)C[C@H]2C(=O)N(C)[C@H]2C/C=C\CCN(C2=O)[C@@H](Cc2ccc(C)cc2)C(=O)N(C)CC(=O)N[C@@H](CCc2cc(F)c(C(F)(F)F)c(F)c2)C(=O)N2C[C@H](OCC)C[C@H]2C(=O)NC2(CC(C)(C)C2)C(=O)N(C)[C@@H](C2CCCC2)C(=O)N(C)[C@H](C(=O)N(C)C)CC(=O)N1C` : provide Kd
result: 0.21

----------
target: GDP-bound KRAS wild-type protein (Homo sapiens); assay: Binding to KRAS by surface plasmon resonance (SPR), Single Cycle Kinetics; conditions: SPR, Single Cycle Kinetics, GDP-bound KRAS wild-type protein; read-out: KRAS KD
recorded-endpoint: pKd
Friendly reminder that pKd comes from taking -log10 of the concentration in mol/L.

Study these solved cases before continuing.
# molecule, system-name, recorded-endpoint, assay-result
data = [
    ("CC[C@H](C)[C@@H]1NC(=O)[C@H](COC)N(C)C(=O)C[C@@H](C(=O)N(C)C)N(C)C(=O)[C@H](C2CCCC2)N(C)C(=O)C2(CC(C)(C)C2)NC(=O)[C@@H]2CC(F)(F)CN2C(=O)[C@H](CCc2cc(F)c(C(F)(F)F)c(F)c2)NC(=O)CN(C)C(=O)[C@H](Cc2ccc(C(F)(F)F)cc2)N2CC/C=C\\C[C@@H](C2=O)N(C)C(=O)CN(C)C1=O [PP1717]", "GDP-bound KRAS wild-type protein (Homo sapiens)", "pKd", 10.29),
    ("CCC[C@H]1C(=O)N[C@@H]([C@@H](C)CC)C(=O)N(C2CC2)CC(=O)N(C)[C@H]2C/C=C\\CCN(C2=O)[C@@H](CC2CCCCC2)C(=O)N(C)CC(=O)N[C@@H](CCc2ccc(C(F)(F)F)c(OC)c2)C(=O)N2C[C@H](OCC)C[C@H]2C(=O)N(C)C2(CCC2)C(=O)N(C)[C@@H](C(CC)CC)C(=O)N(C)[C@H](C(=O)N(C)C)CC(=O)N1C [PP2337]", "GDP-bound KRAS wild-type protein (Homo sapiens)", "pKd", 8.49),
    ("CCO[C@@H]1C[C@H]2C(=O)NC3(CC(C)(C)C3)C(=O)N(C)[C@@H](C(CC)CC)C(=O)N(C)[C@H](C(=O)N(C)C)CC(=O)N(C)[C@@H](CC(C)C)C(=O)N[C@@H]([C@@H](C)CC)C(=O)N(C)CC(=O)N(C)[C@H]3C/C=C\\CCN(C3=O)[C@@H](Cc3ccc(C)cc3)C(=O)N(C)CC(=O)N[C@@H](CCc3ccc(C(F)(F)F)c(OC)c3)C(=O)N2C1 [PP2168]", "GDP-bound KRAS wild-type protein (Homo sapiens)", "pKd", 9.48),
    ("CCC[C@H]1C(=O)N[C@@H]([C@@H](C)CC)C(=O)N2CCC[C@H]2C(=O)N(C)[C@H]2C/C=C\\CCN(C2=O)[C@@H](Cc2ccc(C(F)(F)F)cc2)C(=O)N(C)CC(=O)N[C@@H](CCc2ccc(C(F)(F)F)c(OC)c2)C(=O)N2C[C@H](OCC)C[C@H]2C(=O)N(C)C2(CCC2)C(=O)N(C)[C@@H](C(CC)CC)C(=O)N(C)[C@H](C(=O)N(C)C)CC(=O)N1C [PP2317]", "GDP-bound KRAS wild-type protein (Homo sapiens)", "pKd", 9.40),
    ("CCCN1C(=O)CN(C)C(=O)CN(C)C(=O)[C@H]([C@@H](C)CC)NC(=O)[C@@H]2CCCCCOc3ccc(cc3)C[C@H]1C(=O)N(C)CC(=O)N[C@@H](CCc1cc(F)c(C(F)(F)F)c(F)c1)C(=O)N1C[C@H](OCC)C[C@H]1C(=O)NC1(CCCC1)C(=O)N(C)[C@@H](C1CCCC1)C(=O)N(C)[C@H](C(=O)N(C)C)CC(=O)N2C [PP0895]", "GDP-bound KRAS wild-type protein (Homo sapiens)", "pKd", 11.14),
]

query: Item CCO[C@@H]1C[C@H]2C(=O)NC3(CC(C)(C)C3)C(=O)N(C)[C@@H](C3CCCC3)C(=O)N(C)[C@H](C(=O)N(CC)CC)CC(=O)N(C)[C@@H](COC)C(=O)N[C@@H]([C@@H](C)CC)C(=O)N(C)CC(=O)N(C)[C@H]3C/C=C\CCN(C3=O)[C@@H](Cc3ccc(C)cc3)C(=O)N(C)CC(=O)N[C@@H](CCc3cc(F)c(C(F)(F)F)c(F)c3)C(=O)N2C1 [PP2403] : provide pKd
result: 9.66

----------
system: human lung cancer strain NCI-H441;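 further: cell proliferation inhibition after four days measured by CellTiter-Glo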
Here the recorded pIC50 is given for each entry.
Friendly reminder that pIC50 comes from taking -log10 of the concentration in mol/L.

query: Determine reported pIC50 for `CCO[C@@H]1C[C@H]2C(=O)NC3(CCC3)C(=O)N(C)[C@@H](C3CCCC3)C(=O)N(C)[C@H](C(=O)N(C)C)CC(=O)N(C)[C@@H](Cc3cccnc3)C(=O)N[C@@H]([C@@H](C)CC)C(=O)N(C)CC(=O)N(C)[C@H]3CCCCCN(C3=O)[C@@H](Cc3ccc(F)cc3)C(=O)N(C)CC(=O)N[C@@H](CCc3cc(F)c(C(F)(F)F)c(F)c3)C(=O)N2C1` ; test system: human lung cancer strain NCI-H441.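 Further: cell proliferation inhibition after four days measured by CellTiter-Glo.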
result: 7.29

query: Determine reported pIC50 for `CCO[C@@H]1C[C@H]2C(=O)NC3(CCCC3)C(=O)N(C)[C@@H](C3CCCC3)C(=O)N(C)[C@H](C(=O)N(C)C)CC(=O)N(C)[C@@H](CC)C(=O)N[C@@H]([C@@H](C)CC)C(=O)N(C)CC(=O)N(C)[C@H]3C/C=C\CCN(C3=O)[C@@H](Cc3ccc(C(F)(F)F)cc3)C(=O)N(C)CC(=O)N[C@@H](CCc3cc(F)c(C(F)(F)F)c(F)c3)C(=O)N2C1` ; test system: human lung cancer strain NCI-H441.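 Further: cell proliferation inhibition after four days measured by CellTiter-Glo.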
result: 7.68

query: Determine reported pIC50 for `CCO[C@@H]1C[C@H]2C(=O)NC3(CCC3)C(=O)N(C)[C@@H](C(CC)CC)C(=O)N(C)[C@H](C(=O)N(C)C)CC(=O)N(C)[C@@H](CC3CC3)C(=O)N[C@@H]([C@@H](C)CC)C(=O)N(C)CC(=O)N(C)[C@H]3C/C=C\CCN(C3=O)[C@@H](Cc3ccc(C(F)(F)F)cc3)C(=O)N(C)CC(=O)N[C@@H](CCc3ccc4sccc4c3)C(=O)N2C1` ; test system: human lung cancer strain NCI-H441.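 Further: cell proliferation inhibition after four days measured by CellTiter-Glo.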
result: 6.89
